experimentalDetails: acute toxicity in mice, intraperitoneal (Miller and Tainter)
statedConditions: mouse, in vivo, ip, read-out: Acute toxicity (mice) LD 50
Below is a list of entries, each paired with its recorded LD50 value.
Give your result in mg/kg as a bare value.

>  <compound>
CCN(CCNC(=O)c1cnc(C)nc1OC)CC1CCCCC1

>  <reported>
120

$$$$
>  <compound>
COc1nc(C)ncc1C(=O)NC1CCN(Cc2ccccc2)C1 (stereo not shown)

>  <reported>
130

$$$$
>  <compound>
COc1nc(N)ncc1C(=O)NCCN(C)Cc1ccccc1

>  <reported>
400

$$$$
>  <compound>
CCN(CC)CCNC(=O)c1cnc(SC)nc1OC

>  <reported>
150

$$$$
>  <compound>
CC(C)Oc1nc(N)ncc1C(=O)NC1CCN(Cc2ccccc2)CC1

>  <reported>
115

$$$$

CCN1CCCC1CNC(=O)c1cnc(NC)nc1OC (stereo not shown) has a reported LD50 of 110

CCCCN1CCCC1CNC(=O)c1cnc(C)nc1OC (stereo not shown) has a reported LD50 of 160

CCN(CC)CCNC(=O)c1cnc(N)nc1OC has a reported LD50 of 650

CCCCN1CCCC1CNC(=O)c1cnc(N)nc1OC (stereo not shown) has a reported LD50 of 110

COc1nc(C)ncc1C(=O)NCc1cccn1C has a reported LD50 of 400

----------
experimentalDetails: acute toxicity in mice, intraperitoneal (Miller and Tainter)
statedConditions: mouse, in vivo, ip, read-out: Acute toxicity (mice) LD 50
resultType: log10 LD50 (log10 of the value in mg/kg)
Please note: log10 values; quantity LD50; unit mg/kg.

Previously resolved entries follow.
>  <compound>
COc1nc(N)ncc1C(=O)NCCNc1ccccc1

>  <resultType>
log10 LD50

>  <reported>
2.60

$$$$
>  <compound>
COc1nc(N(C)C)ncc1C(=O)NC1CCN(Cc2ccccc2)CC1

>  <resultType>
log10 LD50

>  <reported>
1.40

$$$$
>  <compound>
CCN1CCCC1CNC(=O)c1cncnc1OC (stereo not drawn)

>  <resultType>
log10 LD50

>  <reported>
2.48

$$$$
>  <compound>
CCN1CCCC1CNC(=O)c1cnc(SC)nc1OC (stereo not drawn)

>  <resultType>
log10 LD50

>  <reported>
1.98

$$$$
>  <compound>
CCCN1CCCC1CNC(=O)c1cnc(N)nc1OC (stereo not drawn)

>  <resultType>
log10 LD50

>  <reported>
2.26

$$$$

CCCc1ncc(C(=O)NCC2CCCN2CC)c(OC)n1 (stereo not drawn) has a reported log10 LD50 of 2.30

COc1nc(C)ncc1C(=O)NCCN1CCN(c2ccc(F)cc2)CC1 has a reported log10 LD50 of 2.06

CCOc1nc(C)ncc1C(=O)NCCN(CC)Cc1ccccc1 has a reported log10 LD50 of 2.15

CCOc1nc(CC)ncc1C(=O)NCC1CCCN1CC (stereo not drawn) has a reported log10 LD50 of 2.15

COc1nc(C)ncc1C(=O)NC1CCN(Cc2ccccc2)CC1 has a reported log10 LD50 of 2.18

CCN(CCNC(=O)c1cnc(N)nc1OC)Cc1ccccc1 has a reported log10 LD50 of 2.52

CCN1CCCC1CNC(=O)c1cnc(C)nc1OC (stereo not drawn) has a reported log10 LD50 of 2.30

CCN1CCCC1CNC(=O)c1cnc(N(C)C)nc1OC (stereo not drawn) has a reported log10 LD50 of 2.11

COc1nc(C)ncc1C(=O)NCC1CCCN1Cc1ccccc1 (stereo not drawn) has a reported log10 LD50 of 2.15

COc1ccccc1N1CCN(CCNC(=O)c2cnc(C)nc2OC)CC1 has a reported log10 LD50 of 2.15

CCN(CCNC(=O)c1cnc(C)nc1OC)Cc1ccccc1 has a reported log10 LD50 of 2.23

Values compiled from patent US4250178A.
